- System: mitochondrial membrane potential
- Type: cell-based, mouse
Rule: ΔΨm below -0.5 gives Yes. Equal to or above -0.5 gives No.

Previously resolved entries follow.
1) C=C1C[C@]23C[C@@]1(O)CC[C@H]2[C@@]12C=C[C@H](O)[C@@](C)(C(=O)O1)[C@H]2[C@@H]3C(=O)O [gibberellic acid]    No
2) CCN(CC)C(=O)N[C@H]1C[C@@H]2c3cccc4[nH]cc(c34)C[C@H]2N(C)C1 [S(+)-terguride]    Yes
3) CC[C@H](C)[C@H](NC)C(=O)O [N-methylisoleucine]    No
4) CO/N=C(\C(=O)N[C@@H]1C(=O)N2C(C(=O)O)=C(CSc3nc(=O)c(=O)[nH]n3C)CS[C@H]12)c1csc(N)n1 [ceftriaxone]    No
5) O=C(CCBr)N1CCN(C(=O)CCBr)CC1 [pipobroman]    Yes

## Input Hello, I'm reviewing records and need to know if ΔΨm of CC [methylmethane] is below -0.5. Could you check?
## Output Yes

## Input Consider COC(=O)[C@@H]1[C@H]2C[C@H]3c4[nH]c5ccccc5c4CCN3C[C@@H]2CC[C@@H]1O [yohimbine] . Does its ΔΨm lie strictly below -0.5?
## Output Yes

## Input ΔΨm under -0.5? Item: NCCc1ccc(O)c(O)c1 [dopamine]
## Output Yes

## Input I wonder whether C[C@H]1C[C@@H]2[C@H]([C@@H](O)C[C@@]3(C)[C@H]2CC[C@]3(O)C(=O)CO)[C@@]2(C)C=CC(=O)C=C12 [methylprednisolone] has ΔΨm below -0.5. Can you tell?
## Output No

## Input Does the reported ΔΨm of the following compound sit strictly below -0.5? Cc1cc(C2CCCCC2)n(O)c(=O)c1.NCCO [ciclopirox ethanolamine]
## Output No
